Read-out: Insulin-like growth factor-binding protein 1 (IGFBP1), IGFBP1 (gene 3484)
assay method text: LTEA_HepaRG_IGFBP1: Life Technologies and Expression Analysis (LTEA) Assay for Insulin-like growth factor-binding protein 1 (IGFBP1) using HepaRG (AID 2283508)
condition parameters: mRNA level, 48 h; actives raise or lower the signal
Active and inactive are the calls of the source. Rule for the calls: active = hit-call score of the fitted dose curve at least 0.9, where 1 is the maximum; inactive = score below 0.9.
Labels: y = active, n = inactive

{"molecule": "ClC1(Cl)C2(Cl)C3(Cl)C4(Cl)C(Cl)(Cl)C5(Cl)C3(Cl)C1(Cl)C5(Cl)C24Cl (centres undefined)", "class assignment": "n"}
{"molecule": "O=C(Nc1ccc2[nH]ccc2c1)c1cc2cc(F)ccc2n1Cc1cccc(F)c1", "class assignment": "y"}
{"molecule": "C[C@]12CCC(=O)C[C@@H]1CC[C@@H]1[C@@H]2CC[C@]2(C)[C@@H](O)CC[C@@H]12", "class assignment": "n"}
{"molecule": "CCOP(=S)(OCC)Oc1nc(Cl)c(Cl)cc1Cl", "class assignment": "n"}
